system: UACC-62; test: NCI tumour cell line growth inhibition, 48 h
Where a name gives a salt, the structure may show the parent alone. Active and inactive are the calls of the source. Cut-off read from the data, not from the text of the source: active = GI50 up to about 1.1 µM and inactive = higher.
// allowed return values: y (active), n (inactive)

Identify the outcome logged in this assay for the molecule shown: `Cc1ccc(/C=N/n2c(-c3ccc(C)cc3)n[nH]c2=O)cc1`
n

Test call, this molecule: `NCCCSCC(=O)O`
n

How was `NC1CCCCC1.O=P(O)(O)C1(P(=O)(O)O)CC1` classified in this test?
n

Which outcome did this test record for the molecule `Cc1ccc(Nc2nc(O)c3[nH]cnc3n2)cc1CO` ?
n

Identify the outcome logged in this assay for the molecule shown: CN1CCC(CN2c3ccccc3Sc3ccccc32)C1 (stereo not given) [METHDILAZINE HYDROCHLORIDE]
n

Please let me know the test result on file for `Fc1c(F)c(C(F)(F)F)c(F)c(F)c1N/N=C/c1cn(Cc2ccccc2)c2ccccc12` .
n

Can you look up the reported call for CCOC(=O)c1cc(C2CCN(c3ccccc3)C2=O)c(C(=O)/C=C(/C)O)[nH]1 (stereo not given) for me?
n

Recorded test outcome, item `CCCc1cn2c(/C=N/NC(=N)N)c(-c3ccc([N+](=O)[O-])cc3)nc2s1`
n

Please share the test call associated with `CCOC(=O)N1[C@@H]2CCC[C@@H]2C(=O)[C@@H]2CCC[C@@H]21` .
n

Hey, what did the test say about `O=C(Cc1ccccc1)NNc1nc(NNC(=O)c2ccncc2)nc(Nc2cccc(Cl)c2)n1` ?
n

So what was the verdict on `O=c1ccc2nc3ccc(O)cc3oc-2c1` in this test?
n

GET /call?item= CC(Cn1c2c(c3cc(O)ccc31)CCc1ccc(O)cc1-2)N(C)C (stereo not given) returns the recorded outcome of this test.
n

I would be grateful if you could indicate the recorded call for C=C1C(=O)OC2C3C(=C)[C@@H](OC(C)=O)CC3C(C)=CC(OC(=O)C(C)(O)C(C)OC(C)=O)[C@@H]12 (stereo not given in full) .
n

What did this assay record as the result for `C[C@H]1C[C@H]2[C@@H]3C(C)(C)O[C@]4(O)C(=O)[C@]5(O)[C@@H](C)CC[C@H]1[C@]25C(=O)[C@]34C` ?
n

Dear colleague, could you share the recorded outcome for `CCOC(=O)CN1C(=O)c2cccc3cc([N+](=O)[O-])cc(c23)C1=O` when you have a moment?
n

Recorded test outcome, item COc1cc(C2c3cc4c(cc3OC(NNC(N)=O)C2C)OCO4)cc(OC)c1O (stereo not given)
y

Per the records of this test, what outcome belongs to COc1cc(C(C[N+](=O)[O-])SC(C)=O)ccc1OCc1ccccc1 (stereo not given) ?
n

Field: outcome | Entry: `Cc1cc2c(C)n(Cc3ccccc3Cl)nc2c(C(=O)O)c1C`
n

Called result for `COc1ccc(/C(C)=N/OC(=O)c2c(-c3ccccc3Cl)noc2C)cc1CN1CCOCC1`
n

Status in this test for `COc1ccc(/C(Cl)=C(\c2ccc(OCCN(C)C)cc2)c2ccc(OC(=O)C(C)(C)C)cc2)cc1` ?
n

###

system: SN12C; assay: NCI tumour cell line growth inhibition, 48 h
Calls of active or inactive are those of the source. Rule as the data show it: active = GI50 up to about 1.1 µM and inactive = higher. Square brackets hold non-standard residues; d marks the D form. Peptide text beside a SMILES is read from it. * marks the point of attachment. ξ: configuration not given here. ξW = NC(Cc1c[nH]c2ccccc12)C(=O)O; X29 = O=C(O)[C@H]1CCC[C@H]1N*; ξF = NC(Cc1ccccc1)C(=O)O; Boc = CC(C)(C)OC(=O)*; ξK = NCCCCC(N)C(=O)O; ξT = CC(O)C(N)C(=O)O; tBu = CC(C)(C)*
# output must be one of T (active), F (inactive)

Test call, this compound: `CNC(=O)NCCN1N=C(C)/C(=C\c2ccccc2)CC1=O`
F

Which outcome did this test record for the compound NC(=O)CN1C=CCC(C(N)=O)=C1 [CARICOTAMIDE] ?
F

Could you kindly confirm the outcome this assay logged for `CCOC(=O)C(CCN1CCC2(CC1)C(=O)N(C)CN2c1ccccc1)C(=O)OCC` ?
F

How did this test come out for `O=C1Nc2cc([N+](=O)[O-])c(Br)cc2C1=O` ?
F

Hello, I am checking results. What call was entered for CC(=O)C(CN1CCOCC1)C(c1ccccc1)c1c(O)c2ccccc2oc1=O (stereo not given) ?
F

Name the outcome recorded for `CC1=C(c2ccccc2)CON(c2ccccc2)C1` in the assay.
F

Short answer needed: outcome of this test for Cc1ccc(C(=O)C(Cl)C(Cl)c2ccc(C)cc2)cc1 (stereo not given) ?
F

Given CCOC(=O)c1cc(C2CCN(c3ccccc3)C2=O)c(C(=O)/C=C(/C)O)[nH]1 (stereo not given) , state the outcome it received in this test.
F

Dear colleague, could you share the recorded outcome for COC(=O)C1=C(C(=O)OC)C(C(=O)c2ccccc2)N2N=C(c3ccc(Cl)cc3)C=CC12 (stereo not given) when you have a moment?
F

Can you look up the reported call for CCS[C@H]1NC(=O)C1[C@H](C)O[Si](C)(C)C(C)(C)C (stereo not given in full) for me?
F

Lab log entry: `COc1ccc(/C(Cl)=C(\c2ccc(OCCN(C)C)cc2)c2ccc(OC(=O)C(C)(C)C)cc2)cc1` — outcome as called in the assay?
F

Write down the call the test reported for this compound. Item: `O=c1cc(NNc2ccc3ccccc3c2)[nH]c(=S)[nH]1`
F

What did the test return for `Cc1cccc(/C=C2\CCCCCC2=O)c1` ?
F

Answer briefly: the call reported for `O=C(O)/C=C/c1nc2ccccc2c(=O)o1` in this assay.
F

Per the records of this test, what outcome belongs to CC(C)CC1NC(=O)CCC(NC(=O)C(Cc2ccc(O)cc2)NC(=O)OCc2ccccc2)C(=O)NC(Cc2ccccc2)C(=O)NC(Cc2ccccc2)NC1=O (stereo not given) ?
F

Hi, sorry to bother you, what did the test record for `Cc1cc2c(C)n(Cc3ccccc3Cl)nc2c(C(=O)O)c1C` ?
F

GET /call?item= `CC(=O)Nc1ccc(C(=O)N2N=C(C)/C(=C/c3cccc([N+](=O)[O-])c3)C2=O)cc1` returns the recorded outcome of this test.
F

Please share the test call associated with `Cc1cc2c(=O)cc(-c3ccc(Cl)cc3Cl)oc2c(C(=O)O)c1C` .
F

What outcome does the record of this test show for `Cn1c(=O)c2[nH]c(Nc3cccc(Cl)c3)nc2n(C)c1=O` ?
F

Record lookup: outcome of this test for `N#C/C(=C\c1ccncc1)c1csc2ccccc12` ?
F

# lookup: test call for `Cc1cc(N)c2ccccc2[n+]1CCCCCCCCCCNc1cc(C)[n+](CCCCCCCCCC[n+]2c(C)cc(N)c3ccccc32)c2ccccc12`
T

Please let me know the test result on file for COC(=O)C1Cc2c(n(Cc3ccccc3)c3ccccc23)C(CCC(=O)O)N1C(C)C (stereo not given) .
F

I'd appreciate the recorded outcome for `CC(C)C(=S)N(C)O` from this test.
F

Hi, sorry to bother you, what did the test record for `CC(=O)c1cc2c(s1)C(=O)c1ccccc1C2=O` ?
F

In this assay, the call recorded for `CCN(CC)CCCNc1nc2ccccc2[n+]([O-])n1` was what?
F

Per the records of this test, what outcome belongs to CC(OC(C)(C)C)C(NC(=O)C(CCCCNC(=O)OC(C)(C)C)NC(=O)C(Cc1c[nH]c2ccccc12)NC(=O)C(N)Cc1ccccc1)C(=O)NC(Cc1ccccc1)C(=O)N[C@@H]1CCC[C@@H]1C(=O)O (stereo not given in full) (H-[ξF][ξW][ξK](Boc)[ξT](tBu)[ξF]-X29) ?
F

Would you mind telling me which call this test gave CC(=O)SC(C[N+](=O)[O-])c1ccccc1 (stereo not given) ?
F

For `COC(=O)[C@@H]1C=CCN1S(=O)(=O)c1ccc(C)cc1` , what call appears in the results of this test?
F

Please share the test call associated with CC1=CC2CCC1(C)C/C2=C(/C)OC=O (stereo not given) .
F

// return assay outcome for `COc1cc(OC)c(-n2[nH]c(=O)n(C)c2=O)c(OC)c1`
F

Tell me the assay call for `CC(=O)/N=C1\N/C(=C\c2ccc(Cl)cc2)C(=O)N1/C=C1\C(=O)Oc2ccccc2C1=O` please.
F

What was the test verdict on C/C(=C\COc1cc(O)c2c(c1)C(=O)c1cc(C)cc(O)c1C2=O)CCC1OC1(C)C (stereo not given) ?
F

Returns: the outcome recorded for `COc1cc2nc(Sc3c([N+](=O)[O-])ncn3C)[nH]c2cc1OC` in this assay.
F

Status in this test for `COc1cc(OC)c2c(O)c(S(=O)(=O)c3ccc(C)cc3)c(=O)oc2c1` ?
F

# lookup: test call for `O=C(NCCCN(CCCCN(CCCNC(=O)c1cc(S(=O)(=O)O)cc(O)c1O)C(=O)c1cc(S(=O)(=O)O)cc(O)c1O)C(=O)c1cc(S(=O)(=O)O)cc(O)c1O)c1cc(S(=O)(=O)O)cc(O)c1O`
F

I'd appreciate the recorded outcome for `Cc1ccc2nc(/C=N/c3ccccc3Cl)cc(C)c2c1` from this test.
F

For CC(Nc1n[nH]c(=O)c2c1nnn2Cc1ccccc1)c1ccccc1 (stereo not given) , what call appears in the results of this test?
F

Fill in: this test's call for `Oc1cc(-c2ccc3ccccc3c2)nc2ncccc12` is ___
F

Tell me the recorded outcome of this test for `CCOC(=O)c1c(SCCN2CCCCC2)n(-c2ccccc2)c(=S)n(-c2ccccc2)c1=O` .
F

Dear colleague, could you share the recorded outcome for `CCCc1cn2c(/C=N/NC(=N)N)c(-c3ccc([N+](=O)[O-])cc3)nc2s1` when you have a moment?
F
